assayedTarget: T1, human MSLN-R1-his protein (human, UniProt Q13421 296-390)
T1 construct: Region 1 of human MSLN, His-tagged; also called human MSLN-R1 protein; hMSLN-R1-his; not shown: His tag
T1 chain: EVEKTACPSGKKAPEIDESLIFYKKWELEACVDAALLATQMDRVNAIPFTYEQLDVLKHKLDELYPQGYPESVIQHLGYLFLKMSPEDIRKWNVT
methodNotes: ELISA, coated MSLN-R1;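 note: serially diluted chimeric antibodies bound to the coated, BSA-blocked plate for 2 h at 37 °C, with TMB colour read after acid stop and a negative control antibody alongside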
propertyName: OD450 at 1 nM (OD450)
Write down the numeric answer in OD450 and omit the unit.

Study these solved cases before continuing.
S009-F2.21.4 (antibody, human IgG1, kappa, V domains shown, Human-murine chimeric antibody, human IgG1/kappa constant regions) VH: EVQLQQSGPELVKPGASVKIPCKASGYTFTDYNMDWVKQSHGKSLEWIGDINPNNGGSIYNQRFKGKATLTVDKSSSTAYMELRSLTSEDSAVYYCARRAYYSTGYFDVWGTGTTVTVSS VL: QIVLTQSPALMSASPGEKVTITCSASSSISYMHWFQQKPGTSPKLWIYSTSTLASGVPARFSGSGSGTSYSLTISRMEAEDTATYYCQQRSSYPPTFGGGTKLEIKR : 0.05
S009-F2.39.3 (antibody, human IgG1, kappa, V domains shown, Human-murine chimeric antibody, human IgG1/kappa constant regions) VH: QVQLQQPGTELVKPGASVKLSCKASGYTFTNYWMHWVKQRPGQGLEWIGNINPSSGDSYYNERFMSKAKMTVDKSSSTAYMQLSSLTSEDSAVYYCARSGGLWLAFWGPGTLVTVSA VL: DIVMTQSPSSLAMSVGQKVTMSCKSSQTLLNSVSQNNYLAWYQQKPGQSPTLLVYFASTRESGVPDRFIGGGSGTDFTLTISSVQAEDLADYFCQQHYRTPYTFGGGTNLEIKR : 0.05
S009-F2.16.10 (antibody, human IgG1, kappa, V domains shown, Human-murine chimeric antibody, human IgG1/kappa constant regions) VH: QVQLQQPGAELIKPGASVKLSCKASGYTFTSYWMHWVKQRPGQGLEWIGIIHPNIGSTNYNERFKSKATLTVDKSSSTAYMQLSSLTSEDSAVYYCARRSSNYGDWYFDVWGTGTTVTVSS VL: DIVMTQSHRFMSTSVGDRVSITCKASQDVGTSVAWYQQKPGQSPKLLIYWASTQHTGVPDRFTGSGSGTDFTLTINNVQSEDLLDYFCQQYSSYPLTFGAGTKLELKR : 0.94
S009-F2.47.1 (antibody, human IgG1, kappa, V domains shown, Human-murine chimeric antibody, human IgG1/kappa constant regions) VH: QVQLQQPGAELVKPGASVKLSCKASGYTFTSYWMHWVKQRPGQGLEWIGMIHPNSGSTNYNEKFKSKATLTVDKSSSTAYMQLSSLTSEDSAVYYCARPVVPYWYFDVWGTGTTVTVSS VL: DIVMTQSQKFMSTTVGDRVSITCKASQNVGTAVAWYQQKPGQSPKLLIYSASNRYTGVPDRFTGSGSGTDFTLTISNMQSEDLADYFCQQSSSYPLTFGAGTKLELKR : 0.09

### Prompt Could you tell me which OD450 at 1 nM is on file for S009-F2.13.3 (antibody, human IgG1, kappa, V domains shown, Human-murine chimeric antibody, human IgG1/kappa constant regions) VH: QVQLQQSGAELMKPGASVKLSCKATGYTFTGYWIEWVKQRPGHGLEWIGEILPGSGSTNYNEKFKGKATFTADTSSNTAYMQLSSLTTEDSAIYYCARAGAWFAYWGQGTLVTVSA VL: QIVLTQSPAIMSASLGERVTMTCTASSSVSSSYLHWYQQKPGSSPKLWTYSTSNLASGVPARFSGSGSGTSYSLTISSMEAEDAATYYCHQYHRSPWTFGGGTKLEIKR ?
### Response 0.05

### Prompt Now consider S009-F2.23.12 (antibody, human IgG1, kappa, V domains shown, Human-murine chimeric antibody, human IgG1/kappa constant regions) VH: QVQLQQPGTELVKPGASVKLSCKASGYTFTNYWMHWVKQRPGQGLEWIGNINPSNGGPYYNERFRSKATLTVDKSSSTAYMQLSSLTSEDSAVYYCARPYYGSSYGYFDYWGQGTTLTVSS VL: DIQMTQSPSSLSASLGGKVTITCKASQDINKYIAWYQHKPGKGPRLLIHYTSELQPGIPSRFSGNGSGRDYSFSISNLEPEDIATYYCLQYANPLRTFGGGTKLEIKR and answer again.
### Response 0.05

### Prompt Check S009-F2.58.8 (antibody, human IgG1, kappa, V domains shown, Human-murine chimeric antibody, human IgG1/kappa constant regions) VH: QVQLLQSGAELAKPGASVKLSCKASGYTFTSYWVHWVKQRPGQGLEWIGYINPNSGYTKYNQKFKDKATLTADKSSSTAYMQLSSLTYEDSAVYYCADHYYGSSRDYFDYWGQGTTLTVSS VL: QIVLTQSPAIMSASPGEKVTMTCSASSSVSYMYWYQQRPGSSPRLLIYDTSNLASGVPVRFSGSGSGTSYSLTISRMEAEDAATYYCQQWNSYPYTFGGGTKLEIKR too.
### Response 0.13

Cited source: patent US20250250357A1
